conditionsUsed: Ebola virus entry assay, ratio channel
The source made the active and inactive calls.
Entry note: the call must match one of Yes for active, No for inactive

Below are worked cases with known answers.
CC(=O)Oc1ccc(C2(c3ccc(OC(C)=O)cc3)C(=O)Nc3ccccc32)cc1 : No
Nc1ccc2c(c1)CN1C(=O)c3ccccc3C1=N2 : No
CCCN(CCC)C(=O)C(CCC(=O)O)NC(=O)c1ccccc1 (stereo not given) : No
Clc1ccc(C(Cn2ccnc2)OCc2ccc(Sc3ccccc3)cc2)c(Cl)c1 (stereo not given) : No
CN(C(=O)CCCOc1ccc2[nH]c(=O)ccc2c1)C1CCCCC1 : No
Cn1c(=O)c2c(ncn2CC2OCCO2)n(C)c1=O : No

*Q* Hi, sorry to bother you, what did the test record for "Oc1ccc(CCNCCCCCCNCCc2ccccc2)cc1O" ?
*A* Yes

*Q* Hi, sorry to bother you, what did the test record for "O=C(Nc1ccc(C(=O)O)c(O)c1)c1ccccc1" ?
*A* No

*Q* Hi, sorry to bother you, what did the test record for CCO[C@@H]1O[C@H](C(COCc2ccccc2)OCc2ccccc2)[C@H](OCc2ccccc2)[C@H]1O (stereo not given in full) ?
*A* Yes

*Q* Hi, sorry to bother you, what did the test record for "CCN(CC)C(=O)N1CCN(C)CC1" ?
*A* No

----------
Here the recorded efficacy is given for each entry.
conditionsUsed: Ebola virus entry assay, green fluorescence channel
Results with a measured potency or affinity are listed apart. Activity calls are given as the source filed them.

Recorded results for 2 compounds are shown here.
C[C@H](N)[C@H](O)c1cccc(O)c1 : -10.3% (inactive)
NC(=O)C(=O)N/N=C/c1ccc([N+](=O)[O-])o1 : 21.5% (inactive)

Please look at the following compound next.
Quick note, efficacy for "CCCCCCCCCCCC[N+](C)(C)Cc1ccccc1" landed at -253% (inactive)

----------
conditionsUsed: Ebola virus entry assay, blue channel fluorescence
Active and inactive are the calls of the source.
Entry note: the call must match one of active, inactive

CCOC(=O)C(C#N)=C(c1ccccc1)c1ccccc1 : inactive
COP(=S)(OC)Oc1ccc(S(N)(=O)=O)cc1 : inactive
CCCCN=C(N)N=C(N)N : inactive
Clc1ccc(Cn2c(CN3CCCC3)nc3ccccc32)cc1 : active
CC(C(=O)O)c1ccc(CC2CCCC2=O)cc1 (centres undefined) : inactive

*Q* Hi, sorry to bother you, what did the test record for "CO/N=C(/C(=O)N[C@@H]1C(=O)N2C(C(=O)O)=C(Cn3nnc(C)n3)CS[C@H]12)c1csc(N)n1" ?
*A* inactive

*Q* Hi, sorry to bother you, what did the test record for COP(=O)(OC)C(O)C(Cl)(Cl)Cl (centres undefined) ?
*A* inactive

*Q* Hi, sorry to bother you, what did the test record for "CC(=O)N(CC(=O)N(C)C)c1ccccc1" ?
*A* inactive

*Q* Hi, sorry to bother you, what did the test record for "C[N+](C)(C)CC[N+]1(C)Cc2c(Cl)c(Cl)c(Cl)c(Cl)c2C1" ?
*A* inactive

----------
assayText: Primary qHTS for Huh7 cytotoxicity: counterscreen for inhibitors of MERS-S pseudotyped particle cell entry (AID 1479147)
conditionsUsed: cell viability read-out; series mostly up to 57.1 µM
Inconclusive results are not listed. Calls of active or inactive are those of the source. Calls come from the whole dose curve.
Entry note: the call must match one of active, inactive

C[C@]12Cc3nonc3C[C@@H]1CC[C@@H]1[C@@H]2CC[C@@]2(C)[C@H]1CC[C@]2(C)O : inactive
CC(C)[N+](C)(CCC(C(N)=O)(c1ccccc1)c1ccccc1)C(C)C : inactive
CN(C)C(=S)SSC(=S)N(C)C : active
O=C(Nc1ccccc1)OCC(CN1CCCCC1)OC(=O)Nc1ccccc1 (centres undefined) : inactive
C=C1C[C@H]2[C@@H]3C=C(C)C4=CC(=O)CC[C@]4(C)[C@H]3CC[C@]2(C)[C@@]1(OC(C)=O)C(C)=O : inactive
CCc1cccc2c3c([nH]c12)C(CC)(CC(=O)O)OCC3 (centres undefined) : inactive

*Q* Hi, sorry to bother you, what did the test record for "C=CCOc1cc(Cl)ccc1C(=O)NCCN(CC)CC" ?
*A* inactive

*Q* Hi, sorry to bother you, what did the test record for C[N+]1(CC2COC(c3ccccc3)(c3ccccc3)O2)CCCCC1 (centres undefined) ?
*A* inactive

*Q* Hi, sorry to bother you, what did the test record for "C=CCN1CC[C@]23CCCC[C@H]2[C@H]1Cc1ccc(O)cc13" ?
*A* inactive

*Q* Hi, sorry to bother you, what did the test record for "CCC(=O)O[C@H]1CC[C@H]2[C@@H]3CCC4=CC(=O)CC[C@]4(C)[C@H]3CC[C@]12C" ?
*A* inactive

*Q* Hi, sorry to bother you, what did the test record for "C[C@H](O)C(=O)Nc1c(I)c(C(=O)NC(CO)CO)c(I)c(C(=O)NC(CO)CO)c1I" ?
*A* inactive

*Q* Hi, sorry to bother you, what did the test record for "O=C(O)CNC(=O)c1ccccc1I" ?
*A* inactive

*Q* Hi, sorry to bother you, what did the test record for "CCOC(=O)NNc1nncc2ccccc12" ?
*A* inactive

*Q* Hi, sorry to bother you, what did the test record for "Cc1nnc2n1-c1sc(CCC(=O)N3CCOCC3)cc1C(c1ccccc1Cl)=NC2" ?
*A* inactive

*Q* Hi, sorry to bother you, what did the test record for CCOC(CN1CCN(CC(C)C(=O)c2ccccc2)CC1)c1ccccc1 (centres undefined) ?
*A* inactive

*Q* Hi, sorry to bother you, what did the test record for "CC(=O)Oc1ccc2c(c1)CC[C@@H]1[C@@H]2CC[C@]2(C)[C@@H](O)CC[C@@H]12" ?
*A* inactive

----------
assayText: qHTS of pediatric cancer cell lines to identify multiple opportunities for drug repurposing: Primary screen for BT-37 cells (AID 1347094); also: potency is read from the fitted curve at half-maximal effect
conditionsUsed: BT-37 viability, CellTiter-Glo luminescence, 48 h; series mostly up to 57.3 µM
Inconclusive results are not listed. Active and inactive are the calls of the source. The call rests on the fitted dose curve; in most records, active means well fitted cell-killing curve with a large enough effect; inconclusive means small, poorly fitted or top-dose-only effect; inactive means flat fitted curve, though single readings scatter.
endpointName: Potency

CCCCCCCCC(=O)NCc1ccc(O)c(OC)c1 : 1 nM (active)
CC(C)=C[C@@H]1[C@@H](C(=O)OCc2coc(Cc3ccccc3)c2)C1(C)C : inactive
CN(C)CCc1c[nH]c2ccccc12 : inactive
NC(=O)OCCCc1ccccc1 : inactive

----------
assayText: qHTS for Inhibitors of the Functional Ribonucleoprotein Complex (vRNP) of Lymphocytic Choriomeningitis Arenaviruses (LCMV): Viability assay - alamar blue signal for LCMV Primary Screen (AID 1347085); also: % is scaled to controls: 0 for no effect and ±100 for the full control effect; nearly all actives have a fitted effect of over 80% in size
conditionsUsed: alamar blue viability counter-screen, LCMV vRNP screen cells; series mostly up to 57.5 µM
Inconclusive results are not listed. The source made the active and inactive calls. Calls follow the shape of the full dose curve; tested in HEK293 reporter line.
endpointName: outcome

CCCCCCCCC(=O)NCc1ccc(O)c(OC)c1 : inactive
CCCCOc1ccc(OCCCN2CCOCC2)cc1 : inactive
CCOCCn1c(N2CCCN(C)CC2)nc2ccccc21 : inactive
O=C(c1cc(O)c(O)c(O)c1)c1ccc(O)c(O)c1O : inactive

Please look at the following compound next.
Quick note, outcome for "O=C1Cc2cc(Cl)ccc2N1" landed at inactive

----------
conditionsUsed: Ebola virus entry assay, green fluorescence channel
Results with a measured potency or affinity are listed apart.
endpointName: efficacy (%)
The reply should be a number in %, with the unit left off.

Recorded results for 5 compounds are shown here.
Cc1cc(=O)oc2cc(O)ccc12 : -26.6
Nc1ccc2c(c1)CN1C(=O)c3ccccc3C1=N2 : 64.3
CC1=C(CC(=O)O)c2cc(F)ccc2/C1=C\c1ccc(S(C)(=O)=O)cc1 : 40.3
CCCOc1ccccc1-c1nc2n[nH]nc2c(=O)[nH]1 : 11
CC(C)NCC(O)c1ccc2ccccc2c1 (stereo unspecified) : 20.8

Quick note, efficacy for Clc1ccc(C(Cn2ccnc2)OCc2c(Cl)cccc2Cl)c(Cl)c1 (stereo unspecified) landed at -112

----------
conditionsUsed: Ebola virus entry assay, reporter ratio channel; Channel type: primary
Activity calls are given as the source filed them.
Entry note: the call must match one of yes for active, no for inactive

COc1ccc([C@@H]2Sc3ccccc3NC(=O)[C@@H]2O)cc1 : no
CCCCCCCCNC(C)C(O)c1ccc(SC(C)C)cc1 (centres undefined) : yes
COCC(=O)N(c1c(C)cccc1C)C(C)C(=O)OC (centres undefined) : no

*Q* Hi, sorry to bother you, what did the test record for "C#C[C@]1(OC(C)=O)CC[C@H]2[C@@H]3CCC4=C/C(=N/O)CC[C@@H]4[C@H]3CC[C@@]21CC" ?
*A* yes

*Q* Hi, sorry to bother you, what did the test record for "O=C1CC2(CCCC2)CC(=O)N1CCCCN1CCN(c2ncccn2)CC1" ?
*A* yes

*Q* Hi, sorry to bother you, what did the test record for CCO[C@@H]1O[C@H](C(COCc2ccccc2)OCc2ccccc2)[C@H](OCc2ccccc2)[C@H]1O (some centres undefined) ?
*A* yes

*Q* Hi, sorry to bother you, what did the test record for "CNC(=O)CN(CCN(CCN(CC(=O)[O-])CC(=O)NC)CC(=O)[O-])CC(=O)[O-].O.[Gd+3]" ?
*A* no

*Q* Hi, sorry to bother you, what did the test record for "C#C[C@]1(OC(C)=O)CC[C@H]2[C@@H]3CCC4=C[C@@H](OC(C)=O)CC[C@@H]4[C@H]3CC[C@@]21C" ?
*A* no

*Q* Hi, sorry to bother you, what did the test record for "Cc1cc(N)c2cc(NC(=O)Nc3ccc4nc(C)cc(N)c4c3)ccc2n1" ?
*A* yes

Just for reference, PubChem BioAssay (NCATS) is where these values come from.
